- EXPERIMENTAL_TARGET: recombinant human Cathepsin K (Homo sapiens, UniProt P43235)
- Sequence (P43235 115-329): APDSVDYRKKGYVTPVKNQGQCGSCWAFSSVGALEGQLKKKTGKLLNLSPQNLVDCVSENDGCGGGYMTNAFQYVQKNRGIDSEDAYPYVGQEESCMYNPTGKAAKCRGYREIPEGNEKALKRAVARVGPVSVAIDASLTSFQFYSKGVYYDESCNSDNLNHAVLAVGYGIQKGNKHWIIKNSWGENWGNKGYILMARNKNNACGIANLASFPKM
- TEST_DESCRIPTION: Cathepsin K activity: inhibition of recombinant human Cathepsin K, fluorogenic substrate Z-Phe-Arg-AMC
- Format: biochemical
- RUN_CONDITIONS: pH5.5, fluorescence at 10 minutes, read-out: pIC50 (negative logarithm of the IC50 concentration) for inhibition of human cathepsin K (converted)
PARAMETER_MEASURED: IC50

CC(C)NCCCc1cc(-c2cccc(C(F)(F)F)c2)nc(C#N)n1
< 10 nM
N#Cc1nc(CCCNCc2ccncc2)cc(-c2cccc(C(F)(F)F)c2)n1
< 10 nM
CN1CCN(CCCc2cc(-c3cccc(C(F)(F)F)c3)nc(C#N)n2)CC1
< 10 nM
CCCc1nc(C#N)nc(-c2cccc(C(F)(F)F)c2)c1C
< 100 nM
CN1CCCN(CCCc2cc(-c3cccc(C(F)(F)F)c3)nc(C#N)n2)CC1
< 10 nM
CNC(=O)CNCCCc1cc(-c2cccc(C(F)(F)F)c2)nc(C#N)n1
< 10 nM
N#Cc1nc(CCCN2CCCCC2)cc(-c2cccc(C(F)(F)F)c2)n1
< 10 nM
CC(C)CNCCCc1cc(-c2cccc(C(F)(F)F)c2)nc(C#N)n1
< 100 nM
N#Cc1nc(CCCNC2CCCCC2)cc(-c2cccc(C(F)(F)F)c2)n1
< 10 nM
N#Cc1nc(CCCN2CCN(c3ccccn3)CC2)cc(-c2cccc(C(F)(F)F)c2)n1
< 10 nM
